- experiment: qHTS Assay for Lipid Storage Modulators in Drosophila S3 Cells
- setup_conditions: BODIPY lipid droplet fluorescence, 18-24 h, cells fed with added oleic acid; series mostly up to 46.1 µM
- Text: NIH Molecular Libraries Probe Production Centers Network [MLPCN] NIH Chemical Genomics Center [NCGC] […] Triacsin C (Sigma-Aldrich T-4540), an inhibitor of long-chain fatty acyl CoA synthetase that blocks synthesis of triglycerides, was used as a positive control for lipid under-storage. […] Fluorescence was detected by excitation of the fluorophores with a 488-nm laser on an Acumen Explorer (TTP Lab Tech). […] Cells were detected using channel 3 (575-640 nm) with 5-um width and 100-um depth filters. […]
The whole screen tested about 320,000 compounds, of which about 2,100 (0.66%) were called active. Not shown: some 53% with an inconclusive outcome. Calls follow the shape of the dose curve; as a rule, active = well fitted inhibition curve with a large enough effect in the signal ratio, with a control signal flat (not every such curve was filed as active); inconclusive = small, poorly fitted or top-dose-only effect, or effect the other way, or a change in a side signal; inactive = flat fitted curve, though single readings scatter; the % refers to the signal ratio. For the sample, actives were picked, then their nearest neighbours and some compounds at random.
A correct response names exactly one class from true (active), false (inactive)

Record excerpt, results attached:
>>> category_label("Cc1ccnc(Sc2ncccc2[N+](=O)[O-])n1")
"true"
>>> category_label("C[C@H](C(=O)O)c1cccc(C(=O)c2ccccc2)c1")
"false"
>>> category_label("COc1ccccc1NC(=O)c1nc(S(=O)(=O)Cc2ccccc2)ncc1Cl")
"false"
>>> category_label("CN(C)S(=O)(=O)c1ccc(NC(=O)c2ccc([N+](=O)[O-])cc2)cc1")
"false"
>>> category_label("Clc1ccc2c(N/N=C/c3cccnc3)ccnc2c1")
"false"

Req: I would be grateful if you could indicate the recorded call for CN(CC1CCCO1)S(=O)(=O)c1ccc(C(=O)Nc2ccc([N+](=O)[O-])cc2)cc1 (stereo not drawn) .
Resp: true

Req: I would be grateful if you could indicate the recorded call for Cc1ccc(Sc2ncccc2[N+](=O)[O-])cc1 .
Resp: false

Req: I would be grateful if you could indicate the recorded call for CC1(C)Cc2c(c(-c3ccccc3)nc3sc4c(=O)[nH]c(=S)[nH]c4c23)CO1 .
Resp: false

Req: I would be grateful if you could indicate the recorded call for CC(=O)c1cc(-c2ccccc2)n(CC(=O)NC2CCCC2)c1C .
Resp: false

Req: I would be grateful if you could indicate the recorded call for CC1=C(C#N)C(NC(=O)C2CCCCC2)(C(F)(F)F)C(=O)N1 (stereo not drawn) .
Resp: false

* * *

- experiment: qHTS Assay for Lipid Storage Modulators in Drosophila S3 Cells
- setup_conditions: BODIPY lipid droplet fluorescence, 18-24 h, cells fed with added oleic acid; series mostly up to 46.1 µM
In all, about 320,000 compounds went through this assay and about 2,100 (0.66%) were called active. Roughly 53% stayed inconclusive and do not appear here. Calls come from the whole dose curve; as a rule, active = well fitted inhibition curve with a large enough effect in the signal ratio, with a control signal flat (not every such curve was filed as active); inconclusive = small, poorly fitted or top-dose-only effect, or effect the other way, or a change in a side signal; inactive = flat fitted curve, though single readings scatter; the % refers to the signal ratio. This excerpt belongs to a sample that is enriched for actives.
A correct response names exactly one class from active, inactive

>>> category_label("O=C(/C=C/c1ccc([N+](=O)[O-])cc1)c1ccco1")
"inactive"
>>> category_label("CC(C)c1ccc(NC(=O)C(c2ccccc2)N2CCN(C(=O)c3ccco3)CC2)cc1 (centres undefined)")
"active"
>>> category_label("CCOc1ccc(NC(N)=O)cc1")
"inactive"
>>> category_label("CCC(C)N1C(=O)S/C(=C/c2ccc(N3CCOCC3)cc2C)C1=O (centres undefined)")
"inactive"
>>> category_label("CCOc1ccc(NC(=O)CCS(=O)(=O)c2ccc(C)cc2)cc1")
"inactive"
>>> category_label("COCCn1c(SCC(=O)Nc2ccc(F)cc2)nc2ccccc2c1=O")
"inactive"

Attention now turns to another entry.
Req: I would be grateful if you could indicate the recorded call for Cc1ccccc1-c1nc2sc3c(c2c(=O)o1)CCC3 .
Resp: inactive

* * *

Reported cell number change values for the following compounds.
- experiment: qHTS Assay for Lipid Storage Modulators in Drosophila S3 Cells;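 as to cell number change: cells counted by Cell Tracker Red CMTPX staining in the red channel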
- setup_conditions: BODIPY lipid droplet fluorescence, 18-24 h, cells fed with added oleic acid; measured here: cell count max response
- From the text: NIH Molecular Libraries Probe Production Centers Network [MLPCN] NIH Chemical Genomics Center [NCGC] […] Triacsin C (Sigma-Aldrich T-4540), an inhibitor of long-chain fatty acyl CoA synthetase that blocks synthesis of triglycerides, was used as a positive control for lipid under-storage. […] Fluorescence was detected by excitation of the fluorophores with a 488-nm laser on an Acumen Explorer (TTP Lab Tech). […] Cells were detected using channel 3 (575-640 nm) with 5-um width and 100-um depth filters. […]
In all, about 320,000 compounds went through this assay and about 2,100 (0.66%) were called active. Inconclusive results (about 53%) are left out. The sample as a whole holds a higher share of actives than the screen did.
Express your answer in %, writing the number without its unit.

>>> reported_result("CSc1cccc(NC(=O)C2CC(=O)N(Cc3ccccc3)C2)c1 (stereo not given)")
8.1

Req: Which cell number change is listed for CCCn1c(SCC(=O)Nc2ccc(NC(C)=O)cc2)nc2c1c(=O)n(C)c(=O)n2C ?
Resp: 7.69

Req: Which cell number change is listed for Cn1c(C(=O)NCC2CCCO2)cc2oc3ccccc3c21 (stereo not given) ?
Resp: -14.1

Req: Which cell number change is listed for CCC(C)NC(=O)CC(NS(=O)(=O)c1ccc(NC(C)=O)cc1)C(C)C (stereo not given) ?
Resp: 10.4

Req: Which cell number change is listed for COC(=O)[C@@H](NC(=O)Nc1cccc(OC)c1)C(C)C ?
Resp: -18

* * *

- experiment: qHTS Assay for Lipid Storage Modulators in Drosophila S3 Cells
- setup_conditions: BODIPY lipid droplet fluorescence, 18-24 h, cells fed with added oleic acid; series mostly up to 46.1 µM
About 2,100 (0.66%) of roughly 320,000 compounds were called active. Roughly 53% stayed inconclusive and do not appear here. Calls come from the whole dose curve; as a rule, active = well fitted inhibition curve with a large enough effect in the signal ratio, with a control signal flat (not every such curve was filed as active); inconclusive = small, poorly fitted or top-dose-only effect, or effect the other way, or a change in a side signal; inactive = flat fitted curve, though single readings scatter; the % refers to the signal ratio. The sample as a whole holds a higher share of actives than the screen did.
A correct response names exactly one class from True (active), False (inactive)

>>> category_label("Cc1cccc(NC(=O)CS(=O)(=O)c2cn(C)c3ccccc23)c1C")
"False"
>>> category_label("CCCCC1CCC(C(=O)N(C)CC(=O)Nc2cccc(OC)c2)CC1 (configuration not stated)")
"False"
>>> category_label("CCCCC1CCC(C(=O)N(C)CC(=O)Nc2cccc(F)c2)CC1 (configuration not stated)")
"True"
>>> category_label("O=C(CN1CCN(S(=O)(=O)c2ccccc2)CC1)Nc1ccc(Cl)c(Cl)c1")
"False"
>>> category_label("Cc1ccc(-n2c(C)cc(C(=O)CN3CCOCC3)c2C)cc1C")
"False"

Req: I would be grateful if you could indicate the recorded call for Cc1ccc(/C=N/N2CCN(Cc3ccc(Cl)cc3)CC2)o1 .
Resp: False

Req: I would be grateful if you could indicate the recorded call for c1ccc(OCc2nc3c4c(ncn3n2)-c2ccccc2CC42CCCC2)cc1 .
Resp: False

Req: I would be grateful if you could indicate the recorded call for CN(CC(=O)Nc1ccc(F)cc1)C(=O)c1ccncc1 .
Resp: True

* * *

- experiment: qHTS Assay for Lipid Storage Modulators in Drosophila S3 Cells;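 as to cell number change: cells counted by Cell Tracker Red CMTPX staining in the red channel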
- setup_conditions: BODIPY lipid droplet fluorescence, 18-24 h, cells fed with added oleic acid; measured here: cell count max response
Among all 320,000 compounds or so, about 2,100 (0.66%) were called active. Roughly 53% stayed inconclusive and do not appear here. What follows is part of a selection rich in actives, with near analogues and random picks from the rest.
Reported cell number change values for the following compounds.
Express your answer in %, writing the number without its unit.

Example compounds with recorded cell number change:
>>> reported_result("C=CCOc1ccccc1CN(CCc1ccccc1)C(=O)c1cccc(S(C)(=O)=O)c1")
1.8
>>> reported_result("Cc1ccc(S(=O)(=O)N2CCC(C(=O)OCC(=O)N3CCc4ccccc43)CC2)cc1")
-18.3
>>> reported_result("COc1ccccc1CNc1cncnc1")
7.04
>>> reported_result("Cc1ccc(S(=O)(=O)CCC(=O)OCC(=O)N2CCc3ccccc32)cc1")
-18.3

Req: Which cell number change is listed for Cc1cc(C)nc(Sc2ccc([N+](=O)[O-])cc2[N+](=O)[O-])n1 ?
Resp: -6.83

Req: Which cell number change is listed for Cc1cc(-c2ccc(C)c(S(=O)(=O)NCCC(C)N3CCCCCC3)c2)on1 (stereo not drawn) ?
Resp: 3.3

* * *

- experiment: qHTS Assay for Lipid Storage Modulators in Drosophila S3 Cells
- setup_conditions: BODIPY lipid droplet fluorescence, 18-24 h, cells fed with added oleic acid; series mostly up to 46.1 µM
Out of some 320,000 compounds screened, about 2,100 (0.66%) were called active. Inconclusive results (about 53%) are left out. Calls follow the shape of the dose curve; as a rule, active = well fitted inhibition curve with a large enough effect in the signal ratio, with a control signal flat (not every such curve was filed as active); inconclusive = small, poorly fitted or top-dose-only effect, or effect the other way, or a change in a side signal; inactive = flat fitted curve, though single readings scatter; the % refers to the signal ratio. The sample as a whole holds a higher share of actives than the screen did.
A correct response names exactly one class from Y for active, N for inactive

Record excerpt, results attached:
>>> category_label("CN(C)c1ccc(/C=N/NC(=O)c2nnn(-c3nonc3N)c2CN(C)c2ccccc2)cc1")
"N"
>>> category_label("Cc1ccc(C(c2sc3ncnn3c2O)N2CC(C)CC(C)C2)cc1 (stereo not drawn)")
"N"

Req: I would be grateful if you could indicate the recorded call for CC12CN3CC(C)(CN(C1)C3c1ccc(F)cc1)C2 (stereo not drawn) .
Resp: Y

Req: I would be grateful if you could indicate the recorded call for Cc1cc(C)n2c(SCC#N)nnc2n1 .
Resp: N

Req: I would be grateful if you could indicate the recorded call for CCCCOC(=O)c1ccc(NC(=O)C(CCS(C)(=O)=O)NC(C)=O)cc1 (stereo not drawn) .
Resp: N

Req: I would be grateful if you could indicate the recorded call for Cc1ccc(C(=O)NNc2ncnc3c2cnn3C)cc1 .
Resp: N

Req: I would be grateful if you could indicate the recorded call for O=C(c1ccc(N2C(=O)C3CC=C(Cl)CC3C2=O)cc1)N1CCOCC1 (stereo not drawn) .
Resp: N
